Origin of the recorded values: paper PMC10731006

Assay: ABTS radical scavenging assay
Conditions: 10 μg/ml
ENDPOINT_NAME: % inhibition ±SD, ABTS (%)
Expressed in %, but write only the number.

Here is how some compounds turned out for % inhibition ±SD, ABTS.
QUERY: Which value of % inhibition ±SD, ABTS has been reported for COC(=O)c1cn(C2CC2)c2cc(N3CCN(C(=O)c4c(C)nnn4Cc4cccc(F)c4)CC3)c(F)cc2c1=O [Compound 6b] in the records?
RESULT: 28.3

QUERY: Which value of % inhibition ±SD, ABTS has been reported for COC(=O)c1cn(C2CC2)c2cc(N3CCN(C(=O)c4c(C)nnn4-c4ccc([N+](=O)[O-])cc4)CC3)c(F)cc2c1=O [Compound 6e] in the records?
RESULT: 37.0

QUERY: Which value of % inhibition ±SD, ABTS has been reported for COC(=O)c1cn(C2CC2)c2cc(N3CCN(C(=O)c4c(C)nnn4-c4ccc(F)cc4)CC3)c(F)cc2c1=O [Compound 6f] in the records?
RESULT: 29.7

QUERY: Which value of % inhibition ±SD, ABTS has been reported for COC(=O)c1cn(C2CC2)c2cc(N3CCN(C(=O)c4c(C)nnn4Cc4ccc(F)cc4)CC3)c(F)cc2c1=O [Compound 6a] in the records?
RESULT: 48.7

QUERY: Which value of % inhibition ±SD, ABTS has been reported for COC(=O)c1cn(C2CC2)c2cc(N3CCN(C(=O)c4c(C)nnn4-c4ccc(Cl)cc4)CC3)c(F)cc2c1=O [Compound 6c] in the records?
RESULT: 33.3

Continue with the next compound.
QUERY: Which value of % inhibition ±SD, ABTS has been reported for COC(=O)c1cn(C2CC2)c2cc(N3CCN(C(=O)c4c(C)nnn4-c4ccc(C(F)(F)F)cc4)CC3)c(F)cc2c1=O [Compound 6d] in the records?
RESULT: 33.7
